target: KOP receptor (Homo sapiens, UniProt P41145); test: cell-based
Sequence (P41145 whole entry): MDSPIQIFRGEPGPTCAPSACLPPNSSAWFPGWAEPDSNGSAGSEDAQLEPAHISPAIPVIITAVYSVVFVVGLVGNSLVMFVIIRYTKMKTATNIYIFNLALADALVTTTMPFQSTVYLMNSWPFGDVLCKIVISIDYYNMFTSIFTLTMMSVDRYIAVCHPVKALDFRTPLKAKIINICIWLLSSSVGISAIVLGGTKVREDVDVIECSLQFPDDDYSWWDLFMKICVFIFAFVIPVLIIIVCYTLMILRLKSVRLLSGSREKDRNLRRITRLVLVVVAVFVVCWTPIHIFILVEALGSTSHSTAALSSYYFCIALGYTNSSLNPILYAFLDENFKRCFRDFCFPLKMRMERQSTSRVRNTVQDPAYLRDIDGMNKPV
Where a SMILES comes first, the peptide text is derived from it. [ ]: non-standard residue; d: D form. Phe(4-NO2) = N[C@@H](Cc1ccc([N+](=O)[O-])cc1)C(=O)O; Phe(4-Cl) = N[C@@H](Cc1ccc(Cl)cc1)C(=O)O; NMeR = CN[C@@H](CCCNC(=N)N)C(=O)O; Aoc = NCCCCCCCC(=O)O; Ahx = NCCCCCC(=O)O; Sar = CNCC(=O)O
pEC50 values by entry
Conceptually, pEC50 converts a concentration in mol/L into minus its log10.

Example cases with answers are listed next.
{"columns": ["compound", "endpoint.value"],
 "data": [
  ["CC(C)C[C@H](NC(=O)[C@H](Cc1ccc([N+](=O)[O-])cc1)NC(=O)CNC(=O)CN(C)C(=O)[C@@H](N)Cc1ccc(O)cc1)C(=O)N[C@@H](CCCNC(=N)N)C(=O)N[C@H](CCCNC(=N)N)C(N)=O", 6.03],
  ["CC(C)C[C@H](NC(=O)[C@H](Cc1ccc(Cl)cc1)NC(=O)CN(C)C(=O)[C@@H](N)Cc1ccc(O)cc1)C(=O)N[C@@H](CCCNC(=N)N)C(=O)N[C@H](CCCNC(=N)N)C(N)=O [KA206] (H-Y[Sar][Phe(4-Cl)]LR[dR]-NH2)", 8.21],
  ["CC(C)C[C@H](NC(=O)[C@H](Cc1ccc(Cl)cc1)NC(=O)CN(C)C(=O)[C@@H](N)Cc1ccc(O)cc1)C(=O)N[C@@H](CCCNC(=N)N)C(=O)N[C@H](CCCNC(=N)N)C(=O)NCCCCCC(N)=O [KA304] (H-Y[Sar][Phe(4-Cl)]LR[dR][Ahx]-NH2)", 8.44],
  ["CC(C)C[C@H](NC(=O)[C@H](Cc1ccc([N+](=O)[O-])cc1)NC(=O)CNC(=O)CNC(=O)[C@@H](N)Cc1ccc(O)cc1)C(=O)N[C@@H](CCCNC(=N)N)C(=O)N[C@H](CCCNC(=N)N)C(N)=O", 5.96],
  ["CC(C)C[C@H](NC(=O)[C@H](Cc1ccc([N+](=O)[O-])cc1)NC(=O)CN(C)C(=O)[C@@H](N)Cc1ccc(O)cc1)C(=O)N[C@@H](CCCNC(=N)N)C(=O)N[C@H](CCCNC(=N)N)C(=O)NCCCCCCCC(N)=O [KA314] (H-Y[Sar][Phe(4-NO2)]LR[dR][Aoc]-NH2)", 8.60]
]}

// query Find the measured pEC50 of CC(C)C[C@H](NC(=O)[C@H](Cc1ccc(Cl)cc1)NC(=O)[C@H](C)NC(=O)[C@@H](N)Cc1ccc(O)cc1)C(=O)N[C@@H](CCCNC(=N)N)C(=O)N[C@H](CCCNC(=N)N)C(N)=O [KA307] (H-YA[Phe(4-Cl)]LR[dR]-NH2) and report it.
// result 5.98

// query Find the measured pEC50 of CC(C)C[C@H](NC(=O)[C@H](Cc1ccccc1)NC(=O)CN(C)C(=O)[C@@H](N)Cc1ccc(O)cc1)C(=O)N[C@@H](CCCNC(=N)N)C(=O)N[C@H](CCCNC(=N)N)C(N)=O [KA203] (H-Y[Sar]FLR[dR]-NH2) and report it.
// result 7.13

// query Find the measured pEC50 of CC(C)C[C@H](NC(=O)[C@H](Cc1ccc(Cl)cc1)NC(=O)CN(C)C(=O)[C@@H](N)Cc1ccc(O)cc1)C(=O)N[C@@H](CCCNC(=N)N)C(=O)N(C)[C@@H](CCCNC(=N)N)C(=O)NCCCCCCCC(N)=O [KA312] (H-Y[Sar][Phe(4-Cl)]LR[NMeR][Aoc]-NH2) and report it.
// result 8.42

// query Find the measured pEC50 of CC(C)C[C@H](NC(=O)[C@H](Cc1ccc([N+](=O)[O-])cc1)NC(=O)CN(C)C(=O)[C@@H](N)Cc1ccc(O)cc1)C(=O)N[C@@H](CCCNC(=N)N)C(=O)N(C)[C@@H](CCCNC(=N)N)C(N)=O [KA310] (H-Y[Sar][Phe(4-NO2)]LR[NMeR]-NH2) and report it.
// result 8.75

###

biological target: DOP receptor (Homo sapiens, UniProt P41143); construct: expressed in transfected cells; host or cells: HEK293; assay: cell-based
Sequence (P41143 whole entry): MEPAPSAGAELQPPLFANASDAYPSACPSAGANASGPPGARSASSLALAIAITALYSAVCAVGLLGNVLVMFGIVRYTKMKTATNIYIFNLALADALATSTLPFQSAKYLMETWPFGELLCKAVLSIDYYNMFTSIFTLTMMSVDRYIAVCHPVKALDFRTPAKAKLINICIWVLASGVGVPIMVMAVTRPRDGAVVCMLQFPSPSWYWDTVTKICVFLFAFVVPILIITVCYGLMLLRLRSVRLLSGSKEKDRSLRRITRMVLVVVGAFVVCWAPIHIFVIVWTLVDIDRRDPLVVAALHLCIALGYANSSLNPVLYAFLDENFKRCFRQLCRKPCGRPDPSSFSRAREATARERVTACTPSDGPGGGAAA
Where a SMILES comes first, the peptide text is derived from it. [ ]: non-standard residue; d: D form. Phe(4-NO2) = N[C@@H](Cc1ccc([N+](=O)[O-])cc1)C(=O)O; Phe(4-Cl) = N[C@@H](Cc1ccc(Cl)cc1)C(=O)O; Phe(4-F) = N[C@@H](Cc1ccc(F)cc1)C(=O)O; NMeR = CN[C@@H](CCCNC(=N)N)C(=O)O; Ahx = NCCCCCC(=O)O; Sar = CNCC(=O)O
reported.endpoint: EC50

Example cases with answers are listed next.
{"columns": ["compound", "EC50"],
 "data": [
  ["CC(C)C[C@H](NC(=O)[C@H](Cc1ccc(F)cc1)NC(=O)CN(C)C(=O)[C@@H](N)Cc1ccc(O)cc1)C(=O)N[C@@H](CCCNC(=N)N)C(=O)N[C@H](CCCNC(=N)N)C(N)=O [KA207] (H-Y[Sar][Phe(4-F)]LR[dR]-NH2)", "> 10 µM"],
  ["CC(C)C[C@H](NC(=O)[C@H](Cc1ccc([N+](=O)[O-])cc1)NC(=O)CN(C)C(=O)[C@@H](N)Cc1ccc(O)cc1)C(=O)N(C)[C@@H](CCCNC(=N)N)C(=O)N(C)[C@@H](CCCNC(=N)N)C(N)=O [KA311] (H-Y[Sar][Phe(4-NO2)]L[NMeR][NMeR]-NH2)", "> 10 µM"],
  ["CC(C)C[C@H](NC(=O)[C@H](Cc1ccc([N+](=O)[O-])cc1)NC(=O)CN(C)C(=O)[C@@H](N)Cc1ccc(O)cc1)C(=O)N[C@H](CCCNC(=N)N)C(=O)N[C@@H](CCCNC(=N)N)C(N)=O [KA205] (H-Y[Sar][Phe(4-NO2)]L[dR]R-NH2)", "3.92 µM"]
]}

Lab note: next compound to report on.
// query Find the measured EC50 of CC(C)C[C@H](NC(=O)[C@H](Cc1ccc(Cl)cc1)NC(=O)CN(C)C(=O)[C@@H](N)Cc1ccc(O)cc1)C(=O)N[C@@H](CCCNC(=N)N)C(=O)N[C@H](CCCNC(=N)N)C(=O)NCCCCCC(N)=O [KA304] (H-Y[Sar][Phe(4-Cl)]LR[dR][Ahx]-NH2) and report it.
// result 1.6 µM

###

target: UniProt P41145; assay: cell-based
Where a SMILES comes first, the peptide text is derived from it. [ ]: non-standard residue; d: D form. Phe(4-NO2) = N[C@@H](Cc1ccc([N+](=O)[O-])cc1)C(=O)O; Phe(4-Cl) = N[C@@H](Cc1ccc(Cl)cc1)C(=O)O; Phe(4-F) = N[C@@H](Cc1ccc(F)cc1)C(=O)O; NMeR = CN[C@@H](CCCNC(=N)N)C(=O)O; Sar = CNCC(=O)O
reported.endpoint: pEC50
Conceptually, pEC50 converts a concentration in mol/L into minus its log10.

Example cases with answers are listed next.
{"columns": ["molecule", "subject.of.test", "pEC50"],
 "data": [
  ["CC(C)C[C@H](NC(=O)[C@H](Cc1ccc([N+](=O)[O-])cc1)NC(=O)CN(C)C(=O)[C@@H](N)Cc1ccc(O)cc1)C(=O)N[C@H](CCCNC(=N)N)C(=O)N[C@@H](CCCNC(=N)N)C(N)=O [KA205] (H-Y[Sar][Phe(4-NO2)]L[dR]R-NH2)", "UniProt P41145", 5.75],
  ["CC(C)C[C@H](NC(=O)[C@H](Cc1ccc(Cl)cc1)NC(=O)CN(C)C(=O)[C@@H](N)Cc1ccc(O)cc1)C(=O)N[C@@H](CCCCN)C(=O)N[C@H](CCCNC(=N)N)C(N)=O [KA306] (H-Y[Sar][Phe(4-Cl)]LK[dR]-NH2)", "UniProt P41145", 7.59],
  ["CC(C)C[C@H](NC(=O)[C@H](Cc1ccc(Cl)cc1)NC(=O)CN(C)C(=O)[C@@H](N)Cc1ccc(O)cc1)C(=O)N[C@@H](CCCNC(=N)N)C(=O)N(C)[C@@H](CCCNC(=N)N)C(N)=O [KA309] (H-Y[Sar][Phe(4-Cl)]LR[NMeR]-NH2)", "UniProt P41145", 8.41]
]}

Lab note: next molecule to report on.
// query Find the measured pEC50 of CC(C)C[C@H](NC(=O)[C@H](Cc1ccc(F)cc1)NC(=O)CN(C)C(=O)[C@@H](N)Cc1ccc(O)cc1)C(=O)N[C@@H](CCCNC(=N)N)C(=O)N[C@H](CCCNC(=N)N)C(N)=O [KA207] (H-Y[Sar][Phe(4-F)]LR[dR]-NH2) and report it.
// result 8.17
